Assay: Human HepG2 cell viability assay in 384 well format
Type: toxicity, cell-based
Parameters: dose 125 nL, time 70.5 hour; concentration not given beside the values
Conditions: HepG2 cells, read-out: Inhibition
Recorded endpoint: cytotoxicity at 70.5 h (%)
Your answer is read as %, so omit the unit and give the number.

Q: Name the reported cytotoxicity at 70.5 h value associated with the compound CCc1ccc(C(=O)N2CCN(Cc3ccc(F)cc3)CC2)s1
Result: 4.63

Q: Name the reported cytotoxicity at 70.5 h value associated with the compound CC(C)CNC(=O)CSc1nnc(OC(C)C)s1
Result: -10.7

Q: Name the reported cytotoxicity at 70.5 h value associated with the compound Cc1sc(NC(=O)CCC(=O)O)c(C(N)=O)c1-c1ccc(Cl)cc1Cl
Result: -1.16

Q: Name the reported cytotoxicity at 70.5 h value associated with the compound CC(=O)N[C@@H]1C[C@H](Cc2ccccc2)O[C@H](c2ccc(C(=O)O)cc2)C1
Result: -6.19

Q: Name the reported cytotoxicity at 70.5 h value associated with the compound CCC(NC(=O)C1CCN(S(C)(=O)=O)CC1)c1ccc(C)cc1C (stereo unspecified)
Result: -4.73

Q: Name the reported cytotoxicity at 70.5 h value associated with the compound O=C(Nc1ccccc1)c1cc2n(n1)CCCN(C(=O)c1ccc[nH]1)C2
Result: 14.9

Q: Name the reported cytotoxicity at 70.5 h value associated with the compound Cc1ccc(C2CCCN2S(=O)(=O)N(C)Cc2cnccn2)o1 (stereo unspecified)
Result: -3.89

Q: Name the reported cytotoxicity at 70.5 h value associated with the compound O=C(CN1C(=O)c2ccccc2CS1(=O)=O)c1ccc(Cl)cc1
Result: 7.63

Q: Name the reported cytotoxicity at 70.5 h value associated with the compound O=C(Cc1cccnc1)N1CCCC2(CCN(C3CCOCC3)C2)C1 (stereo unspecified)
Result: 9.18

Q: Name the reported cytotoxicity at 70.5 h value associated with the compound O=C1CSC(c2ccccc2)c2c(n(C3CCOCC3)[nH]c2=O)N1 (stereo unspecified)
Result: -23

Q: Name the reported cytotoxicity at 70.5 h value associated with the compound Cc1cc(C2CCCN(CCC(=O)N3CCc4ccccc43)C2)n[nH]1 (stereo unspecified)
Result: -4.23
